# Tested on: SR
# Assay details: NCI human tumor cell panel: SR (Leukemia)
# Format: cell-based
# Stated conditions: read-out: Log10 TGI (converted)
# IC (TGI) values compiled below

Returns the measured IC (TGI) for the input compound. Input: OCc1ccc(-c2ccc(-c3ccc[se]3)[se]2)[se]1
> 100 µM

Let us now turn to OCc1ccc(-c2ccc(-c3ccc[se]3)s2)[se]1
> 100 µM

----------
# Test system: SK-MEL-5
# Assay details: NCI human tumor cell panel: SK-MEL-5 (Melanoma)
# Assay type: cell-based
# Stated conditions: SK-MEL-5, Melanoma, read-out: Log10 GI50 (converted)
Property label: GI50 (µM)
Respond with the bare value in µM.

Answered examples (2):
>  <Chemical string>
O=Cc1ccc(-c2ccc(-c3cccs3)[se]2)s1

>  <Units label>
µM

>  <Result value>
46.8

$$$$
>  <Chemical string>
O=Cc1ccc(-c2ccc(-c3ccc[se]3)[se]2)[se]1

>  <Units label>
µM

>  <Result value>
3.39

$$$$

Here is another molecule to look at.
# query: GI50 of entry O=Cc1ccc(-c2ccc(-c3ccc(C=O)[se]3)[se]2)[se]1
72.4
